Reference for the values: ChEMBL document CHEMBL3580576

Tested on: Vero
measurement description: Cytotoxicity against African green monkey Vero cells assessed as reduction in cell growth incubated at 37 degC for 4 days by fluorescence based assay
applied conditions: Chlorocebus sabaeus, 96 h
pIC50: −log10 of the molar value.
Assign 1 (yes) to entries whose pIC50 meets or exceeds 5; assign 0 (no) to the rest.

compound="Cc1c2ccncc2c(C)c2c1[nH]c1ccccc12 [ELLIPTECINE]" subject_of_test=Vero class_name="1 (yes)"
compound=C=C(CO)[C@@]12O[C@@H]1[C@@]1(C)C(=CC2=O)CC[C@@H](O)[C@@H]1C subject_of_test=Vero class_name="1 (yes)"
compound=C=C(C)[C@@]12O[C@@H]1[C@@]1(C)C(=CC2=O)CC[C@@H](OC(=O)Cc2ccc(O)c(Cl)c2)[C@@H]1C subject_of_test=Vero class_name="0 (no)"
compound=C=C(C)[C@@H]1C[C@@]2(C)C(=CC1=O)CC[C@@H](O)[C@@H]2C subject_of_test=Vero class_name="0 (no)"
compound=C=C(C)C1=C[C@@]2(C)C(=CC1=O)CC[C@@H](O)[C@@H]2C subject_of_test=Vero class_name="0 (no)"
compound=C=C(C)[C@@]12O[C@@H]1[C@@]1(C)C(=C[C@@H]2O)CC[C@@H](O)[C@@H]1C subject_of_test=Vero class_name="0 (no)"
compound=C=C(C)[C@@]12O[C@@H]1[C@@]1(C)C(=CC2=O)CC[C@@H](O)[C@@H]1C subject_of_test=Vero class_name="1 (yes)"

Turning now to a further compound:
Hi team, for C=C(CO)[C@@H]1C[C@@]2(C)C(=CC1=O)CC[C@@H](O)[C@@H]2C , is the recorded pIC50 at or above 5?
0 (no)

* * *

Tested on: MCF7
measurement description: Antiproliferative activity against human MCF7 cells assessed as reduction in cell growth incubated at 37 degC for 3 days by resazurin microplate assay
Format: functional, cell-based
applied conditions: Homo sapiens, MCF7, 72 h; read-out: IC50
assay readout: IC50 (µM)
Write the answer as a number in µM, unit excluded.

chemical_smiles=COc1cccc2c1C(=O)c1c(O)c3c(c(O)c1C2=O)C[C@@](O)(C(=O)CO)C[C@@H]3O[C@H]1C[C@H](N)[C@H](O)[C@H](C)O1 assay_readout=IC50 recorded_number=11.5
chemical_smiles=C=C(C)[C@@]12O[C@@H]1[C@@]1(C)C(=CC2=O)CC[C@@H](OC(=O)Cc2ccc(O)c(Cl)c2)[C@@H]1C assay_readout=IC50 recorded_number=39.6

# next compound below
Record request: IC50 value, item CC/C(=C(\c1ccccc1)c1ccc(OCCN(C)C)cc1)c1ccccc1
18.7
